# Test system: 3D7
# method-summary: qHTS profiling for inhibitors of Plasmodium falciparum proliferation (AID 504749); also: nearly all actives have a fitted effect of over 60% in size
# settings: P. falciparum in erythrocytes, SYBR Green DNA, 72 h; series mostly up to 28.7 µM
Records with an inconclusive call do not appear. Calls of active or inactive are those of the source. Calls follow the shape of the dose curve; as a rule, active = well fitted inhibition curve with a large enough effect; inconclusive = small, poorly fitted or top-dose-only effect; inactive = flat fitted curve, though single readings scatter.

>  <chem-smiles>
CC(C)(C)NC[C@H](O)COc1cccc2c1CCCC2=O

>  <outcome>
inactive

$$$$
>  <chem-smiles>
CC(C)Nc1cccnc1N1CCN(C(=O)c2cc3cc(NS(C)(=O)=O)ccc3[nH]2)CC1

>  <outcome>
inactive

$$$$
>  <chem-smiles>
Nc1nc(N)c(-c2ccccc2)s1

>  <outcome>
inactive

$$$$

====

# Tested on: SC27B
# method-summary: qHTS profiling for inhibitors of Plasmodium falciparum proliferation (AID 504749); also: nearly all actives have a fitted effect of over 60% in size
# settings: P. falciparum in erythrocytes, SYBR Green DNA, 72 h; series mostly up to 28.7 µM
Records with an inconclusive call do not appear. Calls of active or inactive are those of the source. Calls follow the shape of the dose curve; as a rule, active = well fitted inhibition curve with a large enough effect; inconclusive = small, poorly fitted or top-dose-only effect; inactive = flat fitted curve, though single readings scatter.
Form entry, call: pick from Y for active, N for inactive

>  <compound>
Cn1c(=O)c2[nH]c(Br)nc2n(C)c1=O

>  <class-name>
N

$$$$
>  <compound>
NCCNC(=O)c1ccc(Cl)cn1

>  <class-name>
N

$$$$
>  <compound>
CCOC(=O)c1ccc(N)cc1

>  <class-name>
N

$$$$
>  <compound>
OCCOCCN1CCN(C2=Nc3ccccc3Sc3ccccc32)CC1

>  <class-name>
N

$$$$
>  <compound>
Cc1cccc(C)c1NC(=O)CN1CCCCCC1

>  <class-name>
N

$$$$
>  <compound>
O=C(Oc1cccc2cccnc12)c1ccccc1

>  <class-name>
N

$$$$

## Task Identify the outcome logged in this assay for the compound shown: CCC1Nc2cc(Cl)c(S(N)(=O)=O)cc2S(=O)(=O)N1 (stereo not drawn)
## Result N

## Task Please state the recorded outcome for this compound: `Cc1ccc(O)c([C@H](CCN(C(C)C)C(C)C)c2ccccc2)c1`
## Result Y

## Task Outcome logged for `CCCN(CCc1cccs1)[C@H]1CCc2c(O)cccc2C1` in this assay:
## Result Y

## Task Test call, this compound: `CC(=O)Nc1ncc([N+](=O)[O-])s1`
## Result N

## Task What is the recorded call for this compound in the test? `C=CCN1CCc2nc(N)sc2CC1`
## Result N

## Task I would be grateful if you could indicate the recorded call for `O=C(O)CCNC(=O)c1ccccc1` .
## Result N

## Task Call for entry `CCNC(=O)NCc1cccc(Cl)c1` :
## Result N

====

# method-summary: qHTS of pediatric cancer cell lines to identify multiple opportunities for drug repurposing: Confirmatory screen for SK-N-SH cells (AID 1347129)
# settings: SK-N-SH neuroblastoma cell viability; series mostly up to 46.1 µM
Inconclusive results are not listed. Calls of active or inactive are those of the source. Calls come from the whole dose curve; as a rule, active = well fitted cell-killing curve with a large enough effect; inconclusive = small, poorly fitted or top-dose-only effect; inactive = flat fitted curve, though single readings scatter.
Parameter call: string, one of True (active), False (inactive)

Would you please look over these solved cases?
>  <compound>
COc1ccc(C(=O)c2ccccc2)c(O)c1

>  <class-name>
False

$$$$
>  <compound>
NC(N)=NN=C(/C=C/c1ccc([N+](=O)[O-])o1)/C=C/c1ccc([N+](=O)[O-])o1

>  <class-name>
True

$$$$
>  <compound>
C[C@@]12C(=O)OC(=O)[C@]1(C)C1CCC2O1

>  <class-name>
False

$$$$

## Task Please let me know the test result on file for `CN(C)C(=O)Nc1ccc(Cl)c(Cl)c1` .
## Result False

## Task Tell me the recorded outcome of this test for CC1CCc2c(N3CCC(O)CC3)c(F)cc3c(=O)c(C(=O)O)cn1c23 (configuration not stated) .
## Result False

## Task GET /call?item= `CCCCCCCCCCC[C@@H](C[C@@H]1OC(=O)[C@H]1CCCCCC)OC(=O)[C@H](CC(C)C)NC=O` returns the recorded outcome of this test.
## Result False

## Task Which outcome was assigned to `C=C[C@@]1(C)CC(=O)[C@]2(O)[C@@]3(C)[C@@H](O)CCC(C)(C)[C@@H]3[C@H](O)[C@H](OC(C)=O)[C@@]2(C)O1` in this test?
## Result False

====

# Tested on: HaCat
# method-summary: Cytotoxic Profiling of Annotated Libraries Using Quantitative High-Throughput Screening (AID 1296008); also: nearly all actives have a fitted effect of over 60% in size
# settings: Five cell lines viability, CellTiter-Glo ATP luminescence, 48-72 h
Results filed as inconclusive are left out. The source made the active and inactive calls. The call rests on the fitted dose curve; in most records, active means well fitted inhibition curve with a large enough effect; inconclusive means small, poorly fitted or top-dose-only effect; inactive means flat fitted curve, though single readings scatter.
Returns: one label drawn from active, inactive

Below, 5 molecules whose answers are already recorded.
>  <molecule>
O=C(Nc1ccccc1)OCC(CN1CCCCC1)OC(=O)Nc1ccccc1 (stereo not drawn)

>  <class-name>
inactive

$$$$
>  <molecule>
O=c1[nH]c(=O)n([C@H]2C[C@H](O)[C@@H](CO)O2)cc1F

>  <class-name>
active

$$$$
>  <molecule>
C#C[C@]1(O)CC[C@H]2[C@@H]3[C@H](C)CC4=C(CCC(=O)C4)[C@H]3CC[C@@]21C

>  <class-name>
inactive

$$$$
>  <molecule>
NC1CCN(c2nc3c(cc2F)c(=O)c(C(=O)O)cn3-c2ccc(F)cc2F)C1 (stereo not drawn)

>  <class-name>
inactive

$$$$
>  <molecule>
CCCCCCCCCCCCCC[N+](C)(C)Cc1ccccc1

>  <class-name>
active

$$$$

## Task Recorded test outcome, item `COc1ccc(/C=N/NC(=O)c2ccncc2)cc1OC`
## Result inactive

## Task Hi team, can someone confirm the assay call for `O=C(CN1CCN(Cc2ccc3c(c2)OCO3)CC1)N1c2ccccc2Sc2ccccc21` ?
## Result inactive

====

# method-summary: qHTS of pediatric cancer cell lines to identify multiple opportunities for drug repurposing: Primary screen for RD cells (AID 1347104); also: nearly all actives have a fitted effect of over 55% in size
# settings: RD rhabdomyosarcoma viability, CellTiter-Glo luminescence, 48 h; series mostly up to 46 µM
Records with an inconclusive call do not appear. Active and inactive are the calls of the source. Calls follow the shape of the dose curve; as a rule, active = well fitted cell-killing curve with a large enough effect; inconclusive = small, poorly fitted or top-dose-only effect; inactive = flat fitted curve, though single readings scatter.
Select the matching outcome among active, inactive

## Task Look up the recorded call for `NS(=O)(=O)c1cc(C(=O)O)cc(N2CCCC2)c1Oc1ccccc1` in this test.
## Result inactive

====

# System: FAB9
# method-summary: qHTS profiling for inhibitors of Plasmodium falciparum proliferation (AID 504749); also: nearly all actives have a fitted effect of over 60% in size
# settings: P. falciparum in erythrocytes, SYBR Green DNA, 72 h; series mostly up to 28.7 µM
Records with an inconclusive call do not appear. Calls of active or inactive are those of the source. Calls come from the whole dose curve; as a rule, active = well fitted inhibition curve with a large enough effect; inconclusive = small, poorly fitted or top-dose-only effect; inactive = flat fitted curve, though single readings scatter.
Write down one outcome, taken from YES for active, NO for inactive

>  <compound>
CC[N+](C)(CC)CCOC(=O)C(O)(c1ccccc1)C1CCCCC1 (configuration not stated)

>  <class-name>
NO

$$$$
>  <compound>
CC(=O)Nc1ccc(CC(=O)O)cc1

>  <class-name>
NO

$$$$
>  <compound>
CCOC(=O)Nc1ccc2c(c1)N(C(=O)CCN1CCOCC1)c1ccccc1S2

>  <class-name>
NO

$$$$

## Task Which outcome did this test record for the compound `Cc1cccc(C)c1NC(=O)CN1CCCCCC1` ?
## Result NO

## Task # lookup: test call for `CCCCCCCCCCCCCC(=O)OC(C)C`
## Result NO

## Task What is the recorded call for this compound in the test? `CC(C)Cn1cnc2c1c(=O)n(C)c(=O)n2C`
## Result NO

## Task Just curious, what result did `CN1CCN(CCC(=O)N2c3ccccc3Sc3ccc(C(F)(F)F)cc32)CC1` get here?
## Result NO

## Task For `O=c1[nH]c(=O)n([C@H]2C[C@H](O)[C@@H](CO)O2)cc1F` , what call appears in the results of this test?
## Result NO

## Task Would you mind telling me which call this test gave `CNCCc1ccccn1` ?
## Result NO

## Task Recorded test outcome, item `CCCCCCCCCCCCOCCOCCOCCOCCOCCOCCOCCOCCOCCO`
## Result NO

## Task Status in this test for `CCN1/C(=C/C=C/c2sc3ccccc3[n+]2CC)Sc2ccccc21` ?
## Result YES

## Task Query: recorded result category for `COc1ccc(CN(CCN(C)C)c2ncccn2)cc1` in this test
## Result NO

====

# System: CP191
# method-summary: qHTS profiling for inhibitors of Plasmodium falciparum proliferation (AID 504749); also: nearly all actives have a fitted effect of over 60% in size
# settings: P. falciparum in erythrocytes, SYBR Green DNA, 72 h; series mostly up to 28.7 µM
# Protocol: NIH National Institute of Allergy and Infectious Diseases [NIAID] NIH Chemical Genomics Center [NCGC] […] Because mature erythrocytes lack DNA, only Plasmodium-derived DNA is detected. NCGC Assay Protocol Summary: The SYBR Green viability assay was adapted from a method described previously (Plouffe et al., 2008). […] The following morning, fluorescence intensity at 485(14) nm excitation and 535(25) nm emission wavelengths was measured on an EnVision (Perkin Elmer) plate reader. […]
Records with an inconclusive call do not appear. Active and inactive are the calls of the source. Calls come from the whole dose curve; as a rule, active = well fitted inhibition curve with a large enough effect; inconclusive = small, poorly fitted or top-dose-only effect; inactive = flat fitted curve, though single readings scatter.
Form entry, call: pick from active, inactive

>  <compound>
FC(F)(F)C(F)(F)C(F)(F)C(F)(F)C(F)(F)C(F)(F)C(F)(F)C(F)(F)Br

>  <class-name>
inactive

$$$$
>  <compound>
Oc1ccccc1C=NCc1ccccc1

>  <class-name>
inactive

$$$$
>  <compound>
O=C1C(CCS(=O)c2ccccc2)C(=O)N(c2ccccc2)N1c1ccccc1 (stereo not given)

>  <class-name>
inactive

$$$$
>  <compound>
NC(N)=NN=C(/C=C/c1ccc([N+](=O)[O-])o1)/C=C/c1ccc([N+](=O)[O-])o1

>  <class-name>
active

$$$$
>  <compound>
O=S(=O)(O)c1ccc(O)cc1

>  <class-name>
inactive

$$$$

## Task Status in this test for `O[C@@H](c1cc(C(F)(F)F)nc2c(C(F)(F)F)cccc12)[C@H]1CCCCN1` ?
## Result active
